Below, each entry is listed alongside its reported TOTAL PROTEIN.
Species: Rattus norvegicus
assay: DrugMatrix - Regimen: Daily Repeat
Type: toxicity, organism-based, Sprague-Dawley
Set-up: regimen Daily Repeat, gender Male, age 6-8 weeks
conditionSet: in vivo, po, 0 mg/kg, 120 h, tissue Plasma, route oral GAVAGE, dose level Control, time 5 day, […]

| compound | TOTAL PROTEIN / G/DL |
| --- | --- |
| CSc1ccc2c(c1)N(CCC1CCCCN1C)c1ccccc1S2 (stereo not given) | 6.1 |
| C=CCN | 6.53 |
| CCCC[C@@H](CC)COC(=O)c1ccccc1C(=O)OC[C@@H](CC)CCCC [BIS(2-ETHYLHEXYL)PHTHALATE] | 5.72 |
| c1ccc2[nH]c(-c3cscn3)nc2c1 | 5.72 |
| CC(C)n1c(/C=C/C(O)CC(O)CC(=O)O)c(-c2ccc(F)cc2)c2ccccc21 (stereo not given) | 5.63 |

----------
Parameter: HEMATOCRIT. Scope: all listed entries.
Organism: Rattus norvegicus
assay: DrugMatrix - Regimen: Daily Repeat
Assay type: toxicity, organism-based, Sprague-Dawley
Design: regimen Daily Repeat, gender Male, age 6-8 weeks
conditionSet: in vivo, po, 0 mg/kg, 120 h, tissue Blood, route oral GAVAGE, dose level Control, time 5 day, […]

| compound | HEMATOCRIT / % |
| --- | --- |
| CN(C)CCCC1(c2ccc(F)cc2)OCc2cc(C#N)ccc21 (stereo not given) [CITALOPRAM] | 34.08 |
| Oc1c(Cl)cc(Cl)cc1Sc1cc(Cl)cc(Cl)c1O [BITHIONOL] | 33.82 |
| CCCC[C@@H](CC)COC(=O)c1ccccc1C(=O)OC[C@@H](CC)CCCC [BIS(2-ETHYLHEXYL)PHTHALATE] | 34.25 |
| c1ccc2[nH]c(-c3cscn3)nc2c1 [THIABENDAZOLE] | 34.25 |
| Cn1cnc([N+](=O)[O-])c1Sc1ncnc2nc[nH]c12 [AZATHIOPRINE] | 32.5 |
| CC(C)(Oc1ccc(CCNC(=O)c2ccc(Cl)cc2)cc1)C(=O)O [BEZAFIBRATE] | 46.94 |
| CSc1ccc2c(c1)N(CCC1CCCCN1C)c1ccccc1S2 (stereo not given) [THIORIDAZINE] | 36.3 |
| COCc1c(C(C)C)nc(C(C)C)c(/C=C/[C@@H](O)C[C@@H](O)CC(=O)O)c1-c1ccc(F)cc1 [CERIVASTATIN] | 36.97 |
| C=CCN [ALLYLAMINE] | 46.43 |
| CC1=C(/C=C/C(C)=C/C=C/C(C)=C\C(=O)O)C(C)(C)CCC1 [ISOTRETINOIN] | 33.38 |

----------
# HEMATOCRIT per record follows
Species: Rattus norvegicus
assay: DrugMatrix - Regimen: Daily Repeat
Type: toxicity, organism-based, Sprague-Dawley
Design: regimen Daily Repeat, gender Male, age 6-8 weeks
conditionSet: in vivo, po, 10 mg/kg, 120 h, tissue Blood, route oral GAVAGE, dose level Low, time 5 day, vehicle .5 % CMC

| compound | HEMATOCRIT [%] |
| --- | --- |
| NS(=O)(=O)c1cc2c(cc1Cl)NCNS2(=O)=O [HYDROCHLOROTHIAZIDE] | 36.07 |
| O=C1CN=C(c2ccccc2)c2cc([N+](=O)[O-])ccc2N1 | 35.47 |
| CC(=O)O[C@]1(C(C)=O)CC[C@H]2[C@@H]3C=C(Cl)C4=CC(=O)CC[C@]4(C)[C@H]3CC[C@@]21C [CHLORMADINONE ACETATE] | 37.17 |
| COc1c(C)c2c(c(O)c1C/C=C(\C)CCC(=O)OCCN1CCOCC1)C(=O)OC2 [MYCOPHENOLATE MOFETIL] | 34.27 |

Value source: ChEMBL document CHEMBL3885881
